Target: T1, HLA-A2/E7(11-19) tetramer (human; HPV 16)
T1 construct: also called E7(11-19) peptide-MHC tetramer; E7 tet
Assay: flow cytometry, tetramer + anti-CD8; transfected mix of CD8- and CD8+ Jurkat-derived cells;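 also: cells transiently transfected with TCR-encoding plasmids, analysed 48 h afterwards by co-staining with HLA-A*02:01 peptide tetramer and anti-CD8 antibody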
Entries and their % cells E7 tet+/CD8+ quadrant values follow.
assay.metric: % cells E7 tet+/CD8+ quadrant (%)

{"binder": "TCR 47 (codon-optimized, cysteine-modified) (TCR, V domains shown) V domain 1: QKEVEQNSGPLSVPEGAIASLNCTYSDRGSQSFFWYRQYSGKSPELIMFIYSNGDKEDGRFTAQLNKASQYVSLLIRDSQPSDSATYLCAVNLLSGSARQLTFGSGTQLTVLP V domain 2: EPEVTQTPSHQVTQMGQEVILRCVPISNHLYFYWYRQILGQKVEFLVSFYNNEISEKSEIFDDQFSVERPDGSNFTLKIRSTKLEDSAMYFCAMTGRTTYEQYFGPGTRLTVTE", "assay.metric": "% cells E7 tet+/CD8+ quadrant", "uom": "%", "quantitative.result": 1.98}
{"binder": "TCR 40 (codon-optimized, cysteine-modified) (TCR, V domains shown) V domain 1: GQQVMQIPQYQHVQEGEDFTTYCNSSTTLSNIQWYKQRPGGHPVFLIQLVKSGEVKKQKRLTFQFGEAKKNSSLHITATQTTDVGTYFCAGRNNFNKFYFGSGTKLNVKP V domain 2: EPEVTQTPSHQVTQMGQEVILRCVPISNHLYFYWYRQILGQKVEFLVSFYNNEISEKSEIFDDQFSVERPDGSNFTLKIRSTKLEDSAMYFCAITARSSYEQYFGPGTRLTVTE", "assay.metric": "% cells E7 tet+/CD8+ quadrant", "uom": "%", "quantitative.result": 7.84}
{"binder": "TCR 50 (codon-optimized, cysteine-modified) (TCR, V domains shown) V domain 1: GEDVEQSLFLSVREGDSSVINCTYTDSSSTYLYWYKQEPGAGLQLLTYIFSNMDMKQDQRLTVLLNKKDKHLSLRIADTQTGDSAIYFCAESPPGTYKYIFGTGTRLKVLA V domain 2: DSGVTQTPKHLITATGQRVTLRCSPRSGDLSVYWYQQSLDQGLQFLIHYYNGEERAKGNILERFSAQQFPDLHSELNLSSLELGDSALYFCASSATRDAYGYTFGSGTRLTVVE", "assay.metric": "% cells E7 tet+/CD8+ quadrant", "uom": "%", "quantitative.result": 3.28}
